Could you please report measured LogEC50 for the items listed next?
systemName: anti-ALFA VHH
Sequence (VHH, as listed by the source): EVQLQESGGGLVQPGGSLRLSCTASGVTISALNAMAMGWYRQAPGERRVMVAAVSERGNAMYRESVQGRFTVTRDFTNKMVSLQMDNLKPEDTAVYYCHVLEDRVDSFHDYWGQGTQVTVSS
assayRemarks: dose-response curve fit (log(agonist) vs. response, variable slope), FIG. 2; assay format not described
Bridge positions count the residues as written; N and C are the ends. Ends that are not written are not given here.
Give bare numbers.

In the examples that follow, each entry is paired with its recorded LogEC50.
[[record]]
binder = "Ac-SRLEEELRRRLTE-NH2 (Linear ALFA tag; also called SD15197) [Ac-Ser-Arg-Leu-Glu-Glu-Glu-Leu-Arg-Arg-Arg-Leu-Thr-Glu-NH2]"
propertymeasured = "LogEC50"
numericvalue = 0.414

[[record]]
binder = "Ac-SRLEEELKRRLTE-NH2 (lactam 5-8; SMILES CC(=O)N[C@@H](CO)C(=O)N[C@@H](CCCNC(=N)N)C(=O)N[C@@H](CC(C)C)C(=O)N[C@@H](CCC(=O)O)C(=O)N[C@H]1CCC(=O)NCCCC[C@@H](C(=O)N[C@@H](CCCNC(=N)N)C(=O)N[C@@H](CCCNC(=N)N)C(=O)N[C@@H](CC(C)C)C(=O)N[C@H](C(=O)N[C@@H](CCC(=O)O)C(N)=O)[C@@H](C)O)NC(=O)[C@H](CC(C)C)NC(=O)[C@H](CCC(=O)O)NC1=O, Cyclic ALFA tag; also called SD15192) [Ac-Ser-Arg-Leu-Glu-(cyclo5)Glu-Glu-Leu-(cyclo8)Lys-Arg-Arg-Leu-Thr-Glu-NH2]"
propertymeasured = "LogEC50"
numericvalue = 0.776

[[record]]
binder = "Ac-SRLEDELRKRLTE-NH2 (lactam 5-9; SMILES CC(=O)N[C@@H](CO)C(=O)N[C@@H](CCCNC(=N)N)C(=O)N[C@@H](CC(C)C)C(=O)N[C@@H](CCC(=O)O)C(=O)N[C@H]1CC(=O)NCCCC[C@@H](C(=O)N[C@@H](CCCNC(=N)N)C(=O)N[C@@H](CC(C)C)C(=O)N[C@H](C(=O)N[C@@H](CCC(=O)O)C(N)=O)[C@@H](C)O)NC(=O)[C@H](CCCNC(=N)N)NC(=O)[C@H](CC(C)C)NC(=O)[C@H](CCC(=O)O)NC1=O, Cyclic ALFA tag; also called SD15196) [Ac-Ser-Arg-Leu-Glu-(cyclo5)Asp-Glu-Leu-Arg-(cyclo9)Lys-Arg-Leu-Thr-Glu-NH2]"
propertymeasured = "LogEC50"
numericvalue = 2.58

[[record]]
binder = "Ac-SRLEEELRKRLTE-NH2 (lactam 9-13; SMILES CC(=O)N[C@@H](CO)C(=O)N[C@@H](CCCNC(=N)N)C(=O)N[C@@H](CC(C)C)C(=O)N[C@@H](CCC(=O)O)C(=O)N[C@@H](CCC(=O)O)C(=O)N[C@@H](CCC(=O)O)C(=O)N[C@@H](CC(C)C)C(=O)N[C@@H](CCCNC(=N)N)C(=O)N[C@H]1CCCCNC(=O)CC[C@@H](C(N)=O)NC(=O)[C@H]([C@@H](C)O)NC(=O)[C@H](CC(C)C)NC(=O)[C@H](CCCNC(=N)N)NC1=O, Cyclic ALFA tag; also called SD15193) [Ac-Ser-Arg-Leu-Glu-Glu-Glu-Leu-Arg-(cyclo9)Lys-Arg-Leu-Thr-(cyclo13)Glu-NH2]"
propertymeasured = "LogEC50"
numericvalue = 0.782


// query Return the recorded LogEC50 value; entry: SRLEEELRKRLTE (lactam 5-9; not fully specified (N-terminus, C-terminus), also called SD15194) [Ac-Ser-Arg-Leu-Glu-(cyclo5)Glu-Glu-Leu-Arg-(cyclo9)Lys-Arg-Leu-Thr-Glu-NH2]
// result 0.776
